Where these numbers come from: ChEMBL document CHEMBL1671645

assay: Cmax in healthy human plasma at 400 mg administered as single dose suspension coadministered with nutritional supplement; type: ADME, organism-based; design: dose 400 mg
Property label: Cmax (ng/mL)
Write the answer as a number in ng/mL, unit excluded.

Lookup: Consider the compound CC[C@@H]([C@H](C)O)n1ncn(-c2ccc(N3CCN(c4ccc(OC[C@@H]5CO[C@@](Cn6cncn6)(c6ccc(F)cc6F)C5)cc4)CC3)cc2)c1=O . State its measured Cmax.
Found: 303

---

test: Half life in fasted healthy human at 400 mg administered as single dose suspension coadministered with proton pump inhibitor; assay type: ADME, organism-based; details: in vivo
Property label: half-life (h)
// note: answer is a bare numeric in h

Lookup: Report half-life, nothing else, for this molecule: CC[C@@H]([C@H](C)O)n1ncn(-c2ccc(N3CCN(c4ccc(OC[C@@H]5CO[C@@](Cn6cncn6)(c6ccc(F)cc6F)C5)cc4)CC3)cc2)c1=O
Found: 25.7

---

test: Half life in fasted healthy human at 400 mg administered as single dose suspension; assay type: ADME, organism-based; details: in vivo
Property label: half-life (h)
Value expressed in h; do not type the unit.

Lookup: Output half-life of CC[C@@H]([C@H](C)O)n1ncn(-c2ccc(N3CCN(c4ccc(OC[C@@H]5CO[C@@](Cn6cncn6)(c6ccc(F)cc6F)C5)cc4)CC3)cc2)c1=O
Found: 27.4

---

test: Half life in fasted healthy human at 400 mg administered as single dose suspension; assay type: ADME, organism-based; settings: in vivo
Property label: half-life (h)
Number only, in h; omit the unit.

Lookup: Quote half-life reported for CC[C@@H]([C@H](C)O)n1ncn(-c2ccc(N3CCN(c4ccc(OC[C@@H]5CO[C@@](Cn6cncn6)(c6ccc(F)cc6F)C5)cc4)CC3)cc2)c1=O [POSACONAZOLE] please.
Found: 24.5

---

assay: Cmax in healthy human plasma at 200 mg QID, po administered as suspension for 7 days coadministered with nutritional supplement; type: ADME, organism-based; set-up: dose 200 mg, route oral
Property label: Cmax (µg/mL)
Number in µg/mL, nothing else.

Lookup: Given CC[C@@H]([C@H](C)O)n1ncn(-c2ccc(N3CCN(c4ccc(OC[C@@H]5CO[C@@](Cn6cncn6)(c6ccc(F)cc6F)C5)cc4)CC3)cc2)c1=O , respond with its Cmax.
Found: 2.16

---

assay: Tmax in fasted healthy human at 400 mg administered as single dose suspension coadministered with proton pump inhibitor; type: ADME, organism-based; conditions: in vivo
Property label: Tmax (h)
Use h as the unit, but write only the number.

Lookup: Give a short answer stating reported Tmax for CC[C@@H]([C@H](C)O)n1ncn(-c2ccc(N3CCN(c4ccc(OC[C@@H]5CO[C@@](Cn6cncn6)(c6ccc(F)cc6F)C5)cc4)CC3)cc2)c1=O .
Found: 6

---

test: AUC in fasted healthy human at 400 mg administered as single dose suspension coadministered with acidic carbonated beverage; format: ADME, organism-based; conditions: plasma
Property label: AUC
Enter the number, and then the unit.

Lookup: Complete the entry with AUC for CC[C@@H]([C@H](C)O)n1ncn(-c2ccc(N3CCN(c4ccc(OC[C@@H]5CO[C@@](Cn6cncn6)(c6ccc(F)cc6F)C5)cc4)CC3)cc2)c1=O
Found: 9.61 µg·h/mL

---

assay: Cmax in fasted healthy human plasma at 400 mg administered as single dose suspension; format: ADME, organism-based; set-up: dose 400 mg
Property label: Cmax (ng/mL)
Please respond with the number in ng/mL and leave the unit unwritten.

Lookup: Please indicate Cmax recorded for CC[C@@H]([C@H](C)O)n1ncn(-c2ccc(N3CCN(c4ccc(OC[C@@H]5CO[C@@](Cn6cncn6)(c6ccc(F)cc6F)C5)cc4)CC3)cc2)c1=O
Found: 181

---

experiment: Cmax in fasted healthy human plasma at 400 mg administered as single dose suspension after 20 mins after consumption of high fat meal; format: ADME, organism-based; design: dose 400 mg
Property label: Cmax (ng/mL)
Answer format: numeric, ng/mL implied, no suffix.

Lookup: Entry CC[C@@H]([C@H](C)O)n1ncn(-c2ccc(N3CCN(c4ccc(OC[C@@H]5CO[C@@](Cn6cncn6)(c6ccc(F)cc6F)C5)cc4)CC3)cc2)c1=O needs its Cmax filled in; supply it.
Found: 544

---

assay: AUC in fasted healthy human at 400 mg administered as single dose suspension 5 mins before consumption of high fat meal; format: ADME, organism-based; conditions: plasma
Property label: AUC at 5 min (ng·h/mL)
Enter your answer as a number in ng·h/mL; do not include the unit.

Lookup: State its AUC at 5 min for this compound: CC[C@@H]([C@H](C)O)n1ncn(-c2ccc(N3CCN(c4ccc(OC[C@@H]5CO[C@@](Cn6cncn6)(c6ccc(F)cc6F)C5)cc4)CC3)cc2)c1=O [POSACONAZOLE]
Found: 10000

---

experiment: Apparent total body clearance in healthy human at 400 mg administered as single dose suspension coadministered with nutritional supplement and 10 mg metoclopramide; type: ADME, organism-based; details: in vivo, po
Property label: CL/F

Lookup: Fill in reported CL/F for this entry: CC[C@@H]([C@H](C)O)n1ncn(-c2ccc(N3CCN(c4ccc(OC[C@@H]5CO[C@@](Cn6cncn6)(c6ccc(F)cc6F)C5)cc4)CC3)cc2)c1=O
Found: 993 mL/min

---

experiment: Tmax in fasted healthy human at 400 mg administered as single dose suspension coadministered with acidic carbonated beverage; assay type: ADME, organism-based; conditions: in vivo
Property label: Tmax
Report field: quantity (unit follows the number).

Lookup: Specify reported Tmax for the molecule shown: CC[C@@H]([C@H](C)O)n1ncn(-c2ccc(N3CCN(c4ccc(OC[C@@H]5CO[C@@](Cn6cncn6)(c6ccc(F)cc6F)C5)cc4)CC3)cc2)c1=O
Found: 4 h

---

assay: AUC in healthy human at 400 mg administered as single dose suspension coadministered with nutritional supplement and 10 mg metoclopramide; format: ADME, organism-based; conditions: plasma
Property label: AUC (ng·h/mL)
Quick reminder: number only, in ng·h/mL, skip the unit.

Lookup: Given the compound CC[C@@H]([C@H](C)O)n1ncn(-c2ccc(N3CCN(c4ccc(OC[C@@H]5CO[C@@](Cn6cncn6)(c6ccc(F)cc6F)C5)cc4)CC3)cc2)c1=O [POSACONAZOLE] , write its reported AUC.
Found: 7390

---

experiment: Apparent volume of distribution in fasted healthy human at 400 mg administered as single dose suspension after 20 mins after consumption of high fat meal; assay type: ADME, organism-based; conditions: in vivo, po
Property label: Vd/F (L)
Dear colleague, please return just the value in L, with no unit written.

Lookup: Report measured Vd/F; entry is CC[C@@H]([C@H](C)O)n1ncn(-c2ccc(N3CCN(c4ccc(OC[C@@H]5CO[C@@](Cn6cncn6)(c6ccc(F)cc6F)C5)cc4)CC3)cc2)c1=O
Found: 757

---

assay: AUC in fasted healthy human at 400 mg administered as single dose suspension; type: ADME, organism-based; settings: plasma
Property label: AUC
State the value with its unit after it.

Lookup: Tell me its AUC given CC[C@@H]([C@H](C)O)n1ncn(-c2ccc(N3CCN(c4ccc(OC[C@@H]5CO[C@@](Cn6cncn6)(c6ccc(F)cc6F)C5)cc4)CC3)cc2)c1=O as the entry.
Found: 5600 ng·h/mL

---

assay: Half life in fasted healthy human at 200 mg QID, po administered as suspension for 7 days; assay type: ADME, organism-based; details: in vivo
Property label: half-life

Lookup: Give a short answer stating reported half-life for CC[C@@H]([C@H](C)O)n1ncn(-c2ccc(N3CCN(c4ccc(OC[C@@H]5CO[C@@](Cn6cncn6)(c6ccc(F)cc6F)C5)cc4)CC3)cc2)c1=O .
Found: 2080 min

---

assay: Tmax in fasted healthy human at 400 mg administered as single dose suspension after consumption of high fat meal; format: ADME, organism-based; settings: in vivo
Property label: Tmax (h)
Provide only the numeric value, understood in h.

Lookup: Identify measured Tmax corresponding to CC[C@@H]([C@H](C)O)n1ncn(-c2ccc(N3CCN(c4ccc(OC[C@@H]5CO[C@@](Cn6cncn6)(c6ccc(F)cc6F)C5)cc4)CC3)cc2)c1=O [POSACONAZOLE]
Found: 6

---

experiment: Half life in fasted healthy human at 400 mg administered as single dose suspension after consumption of high fat meal; format: ADME, organism-based; details: in vivo
Property label: half-life
Please format your answer as a value with the unit trailing.

Lookup: Give half-life for the following compound: CC[C@@H]([C@H](C)O)n1ncn(-c2ccc(N3CCN(c4ccc(OC[C@@H]5CO[C@@](Cn6cncn6)(c6ccc(F)cc6F)C5)cc4)CC3)cc2)c1=O
Found: 22.6 h

---

assay: Tmax in healthy human at 200 mg QID, po administered as suspension for 7 days coadministered with nutritional supplement; format: ADME, organism-based; conditions: in vivo
Property label: Tmax (h)
Numeric answer only, unit h assumed.

Lookup: Give the reported Tmax for this molecule. CC[C@@H]([C@H](C)O)n1ncn(-c2ccc(N3CCN(c4ccc(OC[C@@H]5CO[C@@](Cn6cncn6)(c6ccc(F)cc6F)C5)cc4)CC3)cc2)c1=O
Found: 4
